Source of measurements: patent US20240376099A1

target: TLR9 (Homo sapiens); construct: Fresh blood was collected from normal human donors; endogenous in cells; test: huPBMC TLR9 Antagonist IFNα Assay; conditions: human PBMCs stimulated with ODN2216 0.3 μM, 14-16 hrs; IFNα2b AlphaLISA read-out
Sequence (Q9NR96 26-1032): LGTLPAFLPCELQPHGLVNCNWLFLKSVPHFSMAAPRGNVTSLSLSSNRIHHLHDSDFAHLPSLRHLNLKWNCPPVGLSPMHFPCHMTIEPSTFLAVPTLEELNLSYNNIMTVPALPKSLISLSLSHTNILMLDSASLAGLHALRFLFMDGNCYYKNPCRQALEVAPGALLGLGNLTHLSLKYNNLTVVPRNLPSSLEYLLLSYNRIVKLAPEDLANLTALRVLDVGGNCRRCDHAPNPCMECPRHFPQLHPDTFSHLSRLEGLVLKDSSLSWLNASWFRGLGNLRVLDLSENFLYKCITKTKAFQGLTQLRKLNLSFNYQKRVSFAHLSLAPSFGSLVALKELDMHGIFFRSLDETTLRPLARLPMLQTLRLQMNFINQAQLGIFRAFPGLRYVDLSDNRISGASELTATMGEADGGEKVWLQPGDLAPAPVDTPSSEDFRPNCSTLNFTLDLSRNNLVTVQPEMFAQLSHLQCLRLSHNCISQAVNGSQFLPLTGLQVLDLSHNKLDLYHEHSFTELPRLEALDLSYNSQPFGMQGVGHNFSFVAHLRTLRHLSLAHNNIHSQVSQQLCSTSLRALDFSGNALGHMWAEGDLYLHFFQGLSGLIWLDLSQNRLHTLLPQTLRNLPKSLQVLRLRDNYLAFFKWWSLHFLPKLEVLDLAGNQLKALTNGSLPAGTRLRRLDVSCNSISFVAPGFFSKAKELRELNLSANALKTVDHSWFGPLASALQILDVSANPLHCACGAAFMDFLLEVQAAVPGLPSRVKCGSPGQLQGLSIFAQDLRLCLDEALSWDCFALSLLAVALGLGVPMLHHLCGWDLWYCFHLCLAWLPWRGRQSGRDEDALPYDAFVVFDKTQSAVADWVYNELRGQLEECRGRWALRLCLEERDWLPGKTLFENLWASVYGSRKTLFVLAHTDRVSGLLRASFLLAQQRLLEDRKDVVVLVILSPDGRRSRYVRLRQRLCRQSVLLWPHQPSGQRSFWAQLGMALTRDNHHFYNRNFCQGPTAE
Endpoint: IC50 (µM)

> print(dat)
                                   molecule  recorded.measurement
1  Cc1cc(N2CCc3c(c(C)nn3CC34CCC(NCC(=O)N5CCCCC5)(CC3)CC4)C2)c2cnn(C)c2n1                  2.84

1: Cc1nn(CC23CCC(N4CCCC4)(CC2)CC3)c2c1CN(c1ccnc(-c3ccccc3)c1)CC2
2: Cc1nn(CC23CCC(N)(CC2)CC3)c2c1CN(c1ccnc(-c3ccc(C#N)cc3)c1)CC2
3: COCCNC12CCC(Cn3nc(C)c4c3CCN(c3cc(C)nc5c3cnn5C)C4)(CC1)OC2
4: Cc1cc(N2CCc3c(c(C)nn3CC34CCC(N5CCN(C)CC5=O)(CC3)CC4)C2)c2cnn(C)c2n1
stdin: Order field: IC50 | Direction: descending (largest first) // ordering of labels required in reply
stdout: 4, 2, 3, 1
(4: 8.64 µM, 2: 1.84 µM, 3: 1.24 µM, 1: 0.569 µM)

a: Cc1cc(N2CCc3c(c(C)nn3CC34CCC(N5CCO[C@@H](C)C5)(CC3)CC4)C2)c2cnn(C)c2n1
b: CCOCCN(CCOCC)C12CCC(Cn3nc(C)c4c3CCN(c3cc(C)nc5c3cnn5C)C4)(CC1)CC2
c: Cc1cc(N2CCc3c(c(C)nn3CC34CCC(N)(CC3)C4)C2)c2cnn(C)c2n1
d: Cc1cc(N2CCc3c(c(C)nn3CC34CCC(N5CCOCC5)(CC3)CC4)C2)c2cnn(C)c2n1
e: Cc1cc(N2CCc3c(c(C)nn3CC34CCC(N)(CC3)CC4)C2)c2cn[nH]c2n1
stdin: Please produce an ascending ranking of these molecules based on IC50. The reply should contain the labels ordered as requested.
stdout: a, b, c, d, e
(a: 0.515 µM, b: 0.815 µM, c: 1.21 µM, d: 2.17 µM, e: 3.13 µM)

I: Cc1cc(N2CCc3c(c(C)nn3CC34CCC(NC(C)CO)(CC3)CC4)C2)c2cnn(C)c2n1 (centres unmarked)
II: Cc1cc(N2CCc3c(c(C)nn3CC34CCC(N(C)C(=O)OC(C)(C)C)(CC3)CC4)C2)c2cnn(C)c2n1
stdin: Consider I and II . Which of these has its IC50 at a higher number? # reply format: chosen label
stdout: II
(II: 3.95 µM, I: 0.68 µM)

---

Biological target: TLR7 (Homo sapiens, UniProt Q9NYK1)
Construct: Fresh blood was collected from normal human donors; endogenous in cells
Sequence (Q9NYK1 27-1049): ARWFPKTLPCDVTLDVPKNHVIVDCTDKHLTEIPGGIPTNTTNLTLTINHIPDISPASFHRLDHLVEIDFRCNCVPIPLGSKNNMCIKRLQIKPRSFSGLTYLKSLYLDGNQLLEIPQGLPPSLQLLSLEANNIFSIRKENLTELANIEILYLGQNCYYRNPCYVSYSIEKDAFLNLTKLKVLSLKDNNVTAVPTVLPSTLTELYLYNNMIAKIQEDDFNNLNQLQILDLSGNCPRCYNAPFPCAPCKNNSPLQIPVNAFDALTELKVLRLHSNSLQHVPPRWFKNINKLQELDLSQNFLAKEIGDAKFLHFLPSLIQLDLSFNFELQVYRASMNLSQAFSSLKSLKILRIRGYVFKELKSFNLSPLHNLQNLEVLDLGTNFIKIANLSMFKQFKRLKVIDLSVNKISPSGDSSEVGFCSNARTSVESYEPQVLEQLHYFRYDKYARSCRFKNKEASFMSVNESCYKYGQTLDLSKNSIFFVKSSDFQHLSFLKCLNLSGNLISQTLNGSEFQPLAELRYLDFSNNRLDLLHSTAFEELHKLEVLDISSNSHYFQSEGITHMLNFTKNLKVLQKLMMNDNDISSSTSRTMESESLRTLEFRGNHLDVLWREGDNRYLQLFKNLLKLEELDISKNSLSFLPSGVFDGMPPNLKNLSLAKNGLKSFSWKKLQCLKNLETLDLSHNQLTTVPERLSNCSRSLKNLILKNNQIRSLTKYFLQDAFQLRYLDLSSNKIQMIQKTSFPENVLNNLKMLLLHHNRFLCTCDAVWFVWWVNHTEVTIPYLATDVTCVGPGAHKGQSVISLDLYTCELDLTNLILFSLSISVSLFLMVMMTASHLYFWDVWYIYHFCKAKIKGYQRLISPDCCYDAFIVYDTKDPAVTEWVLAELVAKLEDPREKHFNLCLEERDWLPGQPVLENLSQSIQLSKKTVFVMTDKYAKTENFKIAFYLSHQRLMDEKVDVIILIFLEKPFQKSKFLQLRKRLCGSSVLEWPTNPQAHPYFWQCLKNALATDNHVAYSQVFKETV
Assay: huPBMC TLR7 Antagonist IFNα Assay
Details: human PBMCs stimulated with ssRNA40 10 μg/mL (DOTAP), 14-16 hrs; IFNα2b AlphaLISA read-out
pIC50: −log10 of the molar value.
Endpoint: pIC50

> print(dat)
                                   compound  recorded.measurement
1  Cc1cc(N2CCc3c(c(C)nn3CC34CCC(N(C)C5CCC5)(CC3)CC4)C2)c2cnn(C)c2n1 [compound 79]                  8.40

1: Cc1cc(N2CCc3c(c(C)nn3CC34CCC(NC(C)C)(CC3)CC4)C2)c2cnn(C)c2n1 [compound 55]
2: Cc1nc(N2CCc3c(c(C)nn3CC34CCC(N5CCOCC5)(CC3)CC4)C2)c2c(n1)c(C)nn2C [compound 25]
3: Cc1cc(N2CCc3nn(CC45CC(N)(C4)C5)c(C)c3C2)c2cnn(C)c2n1 [compound 52]
stdin: Order the records, beginning with the lowest pIC50 and ending with the highest. Ranked list of labels, please, in the requested order.
stdout: 2, 3, 1
(2: 6.25, 3: 6.52, 1: 8.30)

P: Cc1cc(N2CCc3c(c(C)nn3CC34CCC(N)(CC3)CC4)C2)c2ccnc(C)c2n1 [compound 92]
Q: Cc1cc(N2CCc3c(c(C)nn3CC34CCC(NCC(=O)N5CCCC5)(CC3)CC4)C2)c2cnn(C)c2n1 [compound 106]
R: CCOCCNC12CCC(Cn3nc(C)c4c3CCN(c3cc(C)nc5c3cnn5C)C4)(CC1)CC2 [compound 71]
S: Cc1c2c(nn1CC13CCC(N)(CC1)CC3)CCN(c1ccnc3[nH]ncc13)C2 [compound 42]
stdin: Would you mind ranking these compounds by ascending pIC50? Respond with an ordered listing of the labels, as requested.
stdout: P, Q, S, R

P: Cc1cc(N2CCc3c(c(C)nn3CC34CCC(N)(CC3)CC4)C2)c2ccncc2n1 [Compound No. 3]
Q: Cc1cc(N2CCc3c(c(C)nn3CC34CCC(N5CCCCC5)(CC3)CC4)C2)c2cnn(C)c2n1 [compound 67]
stdin: Pick the one with the larger pIC50: P vs Q # answer = label of selected item
stdout: Q

P: Cc1cc(N2CCc3c(c(C)nn3CC34CCC(O)(CC3)CC4)C2)c2cnn(C)c2n1 [compound 46]
Q: Cn1ncc2c(N3CCc4c(cnn4CC45CCC(N)(CC4)CC5)C3)nc(N)nc21 [compound 11]
R: Cc1nc(N2CCc3c(c(C)nn3CC34CCC(NCC5COC5)(CC3)CC4)C2)c2c(n1)c(C)nn2C [compound 23]
S: Cc1nc(N2CCc3c(c(C)nn3CC34CCC(NC5CCC5)(CC3)CC4)C2)c2c(n1)c(C)nn2C [compound 27]
stdin: List items by pIC50 in falling order. Could you list the labels in the order requested?
stdout: S, P, Q, R

1: CCNC12CCC(Cn3nc(C)c4c3CCN(c3ccnc(-c5ccccc5)c3)C4)(CC1)CC2 [compound 127]
2: CC(=O)N(C)CC(=O)NC12CCC(Cn3nc(C)c4c3CCN(c3cc(C)nc5c3cnn5C)C4)(CC1)CC2 [compound 139]
stdin: Hey, which is lower on measured pIC50, 1 or 2 ? Identify your pick by its label.
stdout: 1

---

molecular target: TLR7 (Homo sapiens, UniProt Q9NYK1); construct: Fresh blood was collected from normal human donors; endogenous in cells; assay: huPBMC TLR7 Antagonist IFNα Assay; settings: human PBMCs stimulated with ssRNA40 10 μg/mL (DOTAP), 14-16 hrs; IFNα2b AlphaLISA read-out
Endpoint: IC50 (nM)

Please review the following examples before continuing.
> print(dat)
                                   molecule                         study.system  endpoint  recorded.measurement
1  Cc1nc(N2CCc3c(c(C)nn3CC34CCC(N5CCCCC5)(CC3)CC4)C2)c2cn[nH]c2n1 [compound 29]  TLR7 (Homo sapiens, UniProt Q9NYK1)      IC50                    73
2  CCNCC(=O)NC12CCC(Cn3nc(C)c4c3CCN(c3nc(C)nc5c(C)nn(C)c35)C4)(CC1)CC2 [compound 22]  TLR7 (Homo sapiens, UniProt Q9NYK1)      IC50                    33
3  CNCCC(=O)NC12CCC(Cn3nc(C)c4c3CCN(c3cc(C)nc5c3cnn5C)C4)(CC1)CC2 [compound 142]  TLR7 (Homo sapiens, UniProt Q9NYK1)      IC50                    47
4  Cc1cc(N2CCc3c(c(C)nn3CC34CCC(N(C)C(=O)OC(C)(C)C)(CC3)CC4)C2)c2cnn(C)c2n1 [Compound No. 49]  TLR7 (Homo sapiens, UniProt Q9NYK1)      IC50                    20
5  COCCNC12CCC(Cn3nc(C)c4c3CCN(c3nc(C)nc5c(C)nn(C)c35)C4)(CC1)CC2 [compound 18]  TLR7 (Homo sapiens, UniProt Q9NYK1)      IC50                   245

P: Cc1cc(N2CCc3c(c(C)nn3CC34CCC(N)(CC3)CC4)C2)c2ccn(C)c2n1 [Compound No. 5]
Q: Cc1cc(N2CCc3c(c(C)nn3CC34CCC(n5ccnc5)(CC3)CC4)C2)c2cnn(C)c2n1 [Compound No. 119]
stdin: Compare P and Q and name the one whose reported IC50 is smaller. Mark your answer with the label of the selected entry.
stdout: Q

A: Cc1nn(CC23CCC(NC4CCC4)(CC2)CC3)c2c1CN(c1ccnc(-c3ccccc3)c1)CC2 [compound 144]
B: Cc1nn(CC23CCC(N)(CC2)CC3)c2c1CN(c1ccnc3[nH]ncc13)CC2 [compound 41]
stdin: Would you let me know which has the greater IC50 value, A or B ? API: response body contains the label of the selected item.
stdout: A
(A: 73 nM, B: 6 nM)

a: CN[C@H](C)C(=O)NC12CCC(Cn3nc(C)c4c3CCN(c3cc(C)nc5c3cnn5C)C4)(CC1)CC2 [compound 117]
b: Cc1cc(N2CCc3c(c(C(F)(F)F)nn3CC34CCC(N)(CC3)CC4)C2)c2cnn(C)c2n1 [compound 45]
c: Cc1nc(N2CCc3c(c(C)nn3CC34CCC(NC(=O)[C@@H]5CNCCO5)(CC3)CC4)C2)c2c(n1)c(C)nn2C [compound 34]
stdin: Would you mind ranking these molecules by ascending IC50? # respond with the labels, arranged in the requested order
stdout: a, c, b
